Values were extracted from patent US20240182445A1.

- TGT: human TREK-1 (Homo sapiens, UniProt O95069)
- Construct: expressed in transfected cells
- Sequence (O95069 1-426): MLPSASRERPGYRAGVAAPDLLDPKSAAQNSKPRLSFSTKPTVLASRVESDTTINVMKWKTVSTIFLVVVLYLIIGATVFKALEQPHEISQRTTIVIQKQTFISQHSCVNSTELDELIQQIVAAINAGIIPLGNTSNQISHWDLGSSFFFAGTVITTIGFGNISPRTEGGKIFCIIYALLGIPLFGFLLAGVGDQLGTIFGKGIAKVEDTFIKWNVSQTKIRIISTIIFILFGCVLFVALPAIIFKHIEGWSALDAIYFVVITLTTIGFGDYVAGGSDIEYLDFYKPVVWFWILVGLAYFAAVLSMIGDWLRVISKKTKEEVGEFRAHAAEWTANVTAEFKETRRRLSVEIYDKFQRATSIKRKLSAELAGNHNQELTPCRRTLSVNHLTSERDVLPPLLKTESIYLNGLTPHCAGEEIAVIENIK
- EXPERIMENTAL PROTOCOL: TREK-1 Thallium (Tl+) flux assay, Method 1
- Type: cell-based
- CONDITION DETAILS: TREK-1 Thallium (Tl+) flux assay; no *^12 (Method 2) mark on these rows
PROPERTY MEASURED: IC50 (nM)

- COMPOUND: "Cc1cc(C#Cc2ccccc2)cnc1NC(=O)c1c(Cl)cnn1[C@H]1CC[C@@H](NC(=O)OC(C)(C)C)CC1"
  RESULT UNIT: "nM"
  TEST VALUE: 580

I: CC(=O)N1CCC(Cn2ncc(Cl)c2C(=O)Nc2ncc(C#Cc3ccc(F)cc3)cc2C)C(F)(F)C1 (stereo not drawn)
II: CC(=O)N1CCC(n2ncc(Cl)c2C(=O)Nc2ncc(C#Cc3ccc(F)cc3)cc2F)[C@H](F)C1 (stereo in doubt)
## Input IC50 comparison. Which is larger, I or II ? Pick one; state its label.
## Output I
(I: 590 nM, II: 330 nM)
